Answer each item with its documented normalized growth.
test_method_notes: chemical genetic growth profiling, strain panel (AID 1159580);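 also: tested at 20 µM; growth read once vehicle control cultures reached saturation at 30 °C; 1 = growth at the plate median or of vehicle wells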
assay_setup: S. cerevisiae deletion strains, growth OD, locus YOR001W, strain rrp6, hits give low values
In all, about 5,500 compounds went through this assay and about 2,000 (36%) were called active. About 18% were inconclusive and are not listed. The list shows a part of the results.
Respond with the number and no other words.

Asked: Consider the compound shown here: `O=C(CCBr)N1CCN(C(=O)CCBr)CC1` What is its recorded normalized growth?
Given back: 1.01

Asked: And then CCCCCCCCCCCCCCCCCCOCC(O)CO (configuration not stated) , what is it?
Given back: 0.996

Asked: # repeat for CC(=O)OCC(=O)[C@@]1(O)CCC2C3CCC4=CC(=O)CC[C@]4(C)C3[C@@H](O)C[C@@]21C (some centres not stated)
Given back: 0.986

Asked: Now give it for C[C@]12CCC(=O)C=C1CCC1C2C(=O)C[C@@]2(C)C1CC[C@]2(O)C(=O)CO (some centres not stated) too.
Given back: 1.01

Asked: Please do the same for `CN(C)CCc1c[nH]c2ccc(C[C@H]3COC(=O)N3)cc12` as well.
Given back: 0.998

Asked: Next compound: `O=C(O)[C@H](O)[C@@](O)(Cc1ccc(O)cc1)C(=O)O`
Given back: 0.986

Asked: Moving on to `O=C(O)c1cc(=O)c2c(Cl)cc(Cl)cc2[nH]1`
Given back: 1.01

Asked: How about this compound: C#C[C@]1(O)CCC2C3CCC4=Cc5oncc5C[C@]4(C)C3CC[C@@]21C (some centres not stated)
Given back: 0.972

Asked: Entry COc1cc2c(cc1OC)[C@@]13CCN4CC5=CCOC6CC(=O)N2C1[C@H]6[C@H]5C[C@H]43 (some centres not stated) please
Given back: 0.994

Asked: Can you handle `CCCc1nc2c(C)cc(-c3nc4ccccc4n3C)cc2n1Cc1ccc(-c2ccccc2C(=O)O)cc1` next?
Given back: 0.99

Asked: Also `CCCCc1nc(Cl)c(CO)n1Cc1ccc(-c2ccccc2-c2nn[nH]n2)cc1` ?
Given back: 0.978

Asked: Note, next up: `NCCNCCNCCN`
Given back: 0.988

----------
test_method_notes: chemical genetic growth profiling, strain panel (AID 1159580)
assay_setup: S. cerevisiae deletion strains, growth OD, locus YNL153C, strain GIM3, hits give low values
The campaign covered roughly 5,500 compounds. About 2,000 (36%) were called active. Roughly 18% stayed inconclusive and do not appear here. Some of the results follow.
Kindly state normalized growth for each of the entries shown.
Give your answer as a number; write no unit.

Asked: Any idea what normalized growth was measured for C1CCN(CCC2CCCCN2)CC1 (stereo not drawn) ?
Given back: 1

Asked: Same lookup for `CC(C)(C)c1ccc(CSc2nc(N)cc(=O)[nH]2)cc1` , please.
Given back: 1.01

Asked: Next compound up: `CC(=O)Nc1cc2ccccc2oc1=O`
Given back: 0.984

Asked: Then this compound: `COc1cc(O)cc(OC)c1OC`
Given back: 1.01

Asked: Also CNC(Cc1c[nH]c2ccccc12)C(=O)O (stereo not drawn) ?
Given back: 0.976

Asked: Can you check `CC(=O)c1cc2cc(Br)ccc2oc1=O` next?
Given back: 0.994

Asked: // query: `COC(=O)c1cc([N+](=O)[O-])ccc1N1CCOCC1`
Given back: 0.995

Asked: And the next one, `COc1c2occc2c(OC)c2c(=O)cc(C)oc12` ?
Given back: 1

Asked: Repeat for the following compound: `CC(=O)Oc1ccccc1C(=O)O`
Given back: 0.994

Asked: Another: `CC(=O)N[C@@H](Cc1c[nH]c2ccccc12)C(=O)O`
Given back: 1.01

Asked: Try this compound next: `CCC(=O)Nc1cc(OC)cc(OC)c1`
Given back: 0.997

Asked: Field entry: `COc1cc(C=Nc2ccc(F)cc2)cc(OC)c1OC`
Given back: 1.01

Asked: // query: `COC(=O)c1scc(S(=O)(=O)C(C)C)c1N/N=C(/C#N)C(=O)c1ccccc1`
Given back: 0.998

Asked: Ok, now NC1C[C@H]1c1ccccc1 (stereo partly drawn)
Given back: 0.989

Asked: What do you have for `COc1ccc(C2C(=O)c3ccccc3C2=O)cc1` ?
Given back: 0.997

Asked: Proceed to O=C(O)CC1CCCc2ccccc2C1O (stereo not drawn)
Given back: 1

Asked: Same read-out for `O=C(c1cccc([N+](=O)[O-])c1)c1cc2cc(Br)cc(Br)c2o1` ?
Given back: 0.988

Asked: Try CC(=O)CC1CCCCN1 (stereo not drawn) next.
Given back: 1.02

----------
test_method_notes: chemical genetic growth profiling, strain panel (AID 1159580)
assay_setup: S. cerevisiae deletion strains, growth OD, locus YOR290C, strain snf2, hits give low values
Out of some 5,500 compounds screened, about 2,000 (36%) were called active. Inconclusive results (about 18%) are left out. Some of the results follow.
Output yes (1) for records whose normalized growth is lower than 1, no (0) for records at or above 1.

Asked: Find out if reported normalized growth for `Cc1cc(C(C)(C)C)c(O)c(C)c1CC1=NCCN1` is less than 1
Given back: no (0)

Asked: Next up: CC(=O)OC1CCC2(C)C3CC(=O)C4(C)C(CC5OC6(CCC(C)CO6)[C@@H](C)C54)C3CC[C@H]2C1 (some centres not stated)
Given back: yes (1)

Asked: Now consider `CC1(C)S[C@@H]2[C@H](NC(=O)Cc3ccccc3)C(=O)N2[C@H]1C(=O)O` and answer again.
Given back: no (0)

Asked: Entry `CC(=O)[O][Hg][c]1ccccc1` please
Given back: yes (1)

Asked: Another: `COc1ccc2c(=O)ccoc2c1`
Given back: no (0)

Asked: And then CC(=O)O[C@H]1CC[C@]2(C)C3CC[C@@]4(C)C(CC5O[C@@]6(CCC(C)CO6)[C@@H](C)C54)C3CC[C@@H]2C1 (some centres not stated) , what is it?
Given back: no (0)

Asked: Same lookup for CC(NCCC(c1ccccc1)c1ccccc1)c1ccccc1 (configuration not stated) , please.
Given back: yes (1)

----------
test_method_notes: chemical genetic growth profiling, strain panel (AID 1159580);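 also: tested at 20 µM; growth read once vehicle control cultures reached saturation at 30 °C; 1 = growth at the plate median or of vehicle wells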
assay_setup: S. cerevisiae deletion strains, growth OD, locus YPL241C, strain CIN2, hits give low values
Hit rate of the full screen: of about 5,500 compounds, about 2,000 (36%) were called active. Roughly 18% stayed inconclusive and do not appear here. The list shows a part of the results.
value_kind: normalized growth
Write no unit; give the number alone.

Asked: What does the data say about its normalized growth? Entry: `O=c1cc(C(F)(F)F)[nH]c2cc(Cl)cc(Cl)c12`
Given back: 0.748

Asked: Now give it for `O=C(O)c1cc(=O)c2cccc(O)c2[nH]1` too.
Given back: 0.982

Asked: How about this compound: `CCCCc1nc(Cl)c(CO)n1Cc1ccc(-c2ccccc2-c2nn[nH]n2)cc1`
Given back: 1.01

Asked: Now the same for `NC(=O)CNCCC(c1ccccc1)c1ccccc1`
Given back: 0.984

Asked: Ok, now C1CCN(CCC2CCCCN2)CC1 (centres undefined)
Given back: 0.993

Asked: For `COC(=O)CSCCc1nc(-c2ccc([N+](=O)[O-])cc2)cs1` then?
Given back: 0.911

Asked: Here is the next compound: `N#C/C(=C\N(CCS(=O)(=O)c1ccc(Cl)cc1)Cc1cccs1)S(=O)(=O)c1ccc(Cl)cc1`
Given back: 0.981

Asked: Let us now turn to `O=C(O)c1cc(=O)c2c(Cl)cc(Cl)cc2[nH]1`
Given back: 1

Asked: Follow-up entry: `O=C1CCCN1c1ccc(Cl)c(Cl)c1`
Given back: 0.847

----------
test_method_notes: chemical genetic growth profiling, strain panel (AID 1159580);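 also: tested at 20 µM; growth read once vehicle control cultures reached saturation at 30 °C; 1 = growth at the plate median or of vehicle wells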
assay_setup: S. cerevisiae deletion strains, growth OD, locus YPR167C, strain met16, hits give low values
The campaign covered roughly 5,500 compounds. About 2,000 (36%) were called active. About 18% were inconclusive and are not listed. Some of the results follow.
Please respond with reported normalized growth for every item in the list.

Asked: Which normalized growth value belongs to `COc1cccc(O)c1O` ?
Given back: 1.02 (inactive)

Asked: Repeat with `NC(=O)NO`
Given back: 0.996 (inactive)

Asked: Try `CCCc1nc2c(C)cc(-c3nc4ccccc4n3C)cc2n1Cc1ccc(-c2ccccc2C(=O)O)cc1` next.
Given back: 1.01 (inactive)

----------
test_method_notes: chemical genetic growth profiling, strain panel (AID 1159580);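 also: tested at 20 µM; growth read once vehicle control cultures reached saturation at 30 °C; 1 = growth at the plate median or of vehicle wells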
assay_setup: S. cerevisiae deletion strains, growth OD, locus YPR119W, strain clb2, hits give low values
Hit rate of the full screen: of about 5,500 compounds, about 2,000 (36%) were called active. Roughly 18% stayed inconclusive and do not appear here. This is one part of the list.
value_kind: normalized growth
Please give only the number in your answer, with no unit.

Asked: Quick one: normalized growth of `COc1c2occc2c(OC)c2c(=O)cc(C)oc12` ?
Given back: 1.01

Asked: Also need `COc1ccc(C(=O)O)c(O)c1OC` , thanks.
Given back: 0.993

Asked: Query CC1(C)C(=O)[C@@H]2O[C@@H]2[C@@]2(C)C1CC(=O)[C@]1(C)C2CC[C@@]2(C)[C@H](c3ccoc3)OC(=O)[C@H]3O[C@]321 (stereo partly drawn) next
Given back: 0.986

Asked: Then this compound: `COc1ccc(C(=O)c2ccc(O)cc2)c(O)c1O`
Given back: 0.971

Asked: Another: `CCN(CC)CCNC(=O)c1cc(Cl)c(N)cc1OC`
Given back: 0.987

Asked: Similarly, `Cc1c(NC(=O)c2cccnc2)c(=O)n(-c2ccccc2)n1C` ?
Given back: 0.985

Asked: Cool, now COc1c2c(cc3c1OCO3)C13C=C[C@H](OC)CC1N(C2)CC3O (stereo partly drawn)
Given back: 0.981

Asked: And the next one, `CCOc1ccc(C(=O)c2cc(O)c(OC)c(OC)c2O)cc1` ?
Given back: 1.02

Asked: Now consider `OCCN1CCN(CCCN2c3ccccc3Sc3ccc(C(F)(F)F)cc32)CC1` .
Given back: 0.988

Asked: Thanks! And `CCOc1ccc(C(=O)c2ccc(O)c(O)c2O)cc1` ?
Given back: 0.991

Asked: Another: `CC[C@H]1OC(=O)[C@H](C)[C@@H](O[C@H]2C[C@@](C)(OC)[C@@H](O)[C@H](C)O2)[C@H](C)[C@@H](O[C@@H]2O[C@H](C)C[C@H](N(C)C)[C@H]2O)[C@](C)(O)C[C@@H](C)[C@@H]2N[C@@H](COCCOC)O[C@H]([C@H]2C)[C@]1(C)O`
Given back: 1.01

Asked: What do you get for `CN(C)CCc1c[nH]c2ccc(CS(=O)(=O)N3CCCC3)cc12` ?
Given back: 0.994

Asked: // same read-out, input: `NCCc1c[nH]c2ccccc12`
Given back: 0.992

Asked: Same again, this time with `CCOC([O-])=Nc1c[n+](N2CCOCC2)no1`
Given back: 0.994

Asked: Next entry: C#CC1(O)CCC2C3CCC4=CC(=O)CCC4(C)C3CCC21C (stereo not drawn)
Given back: 0.983

Asked: Also check `COc1ccc2c(=O)ccoc2c1`
Given back: 1.01

Asked: And C[C@]12CCC(=O)C=C1CCC1C2[C@@H](O)C[C@@]2(C)C1CC[C@]2(O)C(=O)COC(=O)CCC(=O)O (stereo partly drawn) ?
Given back: 1.01

Asked: Please answer likewise for OC(c1cc(C(F)(F)F)nc2c(C(F)(F)F)cccc12)C1CCCCN1 (stereo not drawn)
Given back: 0.99
